biological target: HLA-A*0301 (human); assay: competition with 125I-labelled standard peptide on purified HLA, gel filtration; conditions: remark: other sources report otherwise
VALUE_KIND: binding affinity ratio (IC50 of standard peptide / IC50 of test peptide)
Give the value as a plain number.

[ask] Please report the recorded binding affinity ratio (IC50 of standard peptide / IC50 of test peptide) for TLWKAGILYKR (modifications not checked) [HBV POL 150 11-mer peptide … (SEQ ID NO: 666)] .
[reply] 0.0082

[ask] Please report the recorded binding affinity ratio (IC50 of standard peptide / IC50 of test peptide) for TSAICSVVR (modifications not checked) [HBV POL 519 9-mer peptide … (SEQ ID NO: 667)] .
[reply] 0.0005

[ask] Please report the recorded binding affinity ratio (IC50 of standard peptide / IC50 of test peptide) for SAGPCALR (modifications not checked) [HBV X 65 8-mer peptide SAGPCALR (SEQ ID NO: 651)] .
[reply] -0.0002

[ask] Please report the recorded binding affinity ratio (IC50 of standard peptide / IC50 of test peptide) for TAELLAACFAR (modifications not checked) [HBV POL 716 11-mer peptide … (SEQ ID NO: 661)] .
[reply] 0.0006
